From: patent US8383581B2

# TESTED_ON: T1, rat PTH-1R (rat PTHR endogenously expressed on UMR-106 rat osteosarcoma cells) (rat, UniProt P25961 27-591)
# T1 sequence (looked up): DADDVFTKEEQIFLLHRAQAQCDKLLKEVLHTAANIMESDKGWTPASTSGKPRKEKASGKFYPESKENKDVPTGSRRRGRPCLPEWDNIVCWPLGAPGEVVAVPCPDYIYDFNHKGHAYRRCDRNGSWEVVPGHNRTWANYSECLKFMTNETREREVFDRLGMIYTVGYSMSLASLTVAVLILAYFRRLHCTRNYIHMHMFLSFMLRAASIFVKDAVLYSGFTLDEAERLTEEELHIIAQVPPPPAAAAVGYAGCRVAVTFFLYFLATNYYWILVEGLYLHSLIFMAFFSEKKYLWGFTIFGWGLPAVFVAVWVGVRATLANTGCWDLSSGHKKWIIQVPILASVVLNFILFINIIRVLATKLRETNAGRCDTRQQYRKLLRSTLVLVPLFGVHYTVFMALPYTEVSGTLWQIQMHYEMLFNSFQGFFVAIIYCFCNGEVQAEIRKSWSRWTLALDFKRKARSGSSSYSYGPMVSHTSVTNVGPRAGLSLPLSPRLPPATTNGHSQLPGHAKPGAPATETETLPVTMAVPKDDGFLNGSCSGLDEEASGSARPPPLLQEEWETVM
# TEST_METHOD_NOTES: cell-based or functional assay
Where no end group is shown, it is not given here. [ ]: non-standard residue; d: D form. Bip(2'-Et-4'-OMe) = CCc1cc(OC)ccc1-c1ccc(C[C@H](N)C(=O)O)cc1; αMePhe(2,6-F2) = C[C@](N)(Cc1c(F)cccc1F)C(=O)O; αMePhe(2-F) = C[C@](N)(Cc1ccccc1F)C(=O)O; hhPhe = N[C@@H](CCCc1ccccc1)C(=O)O; hArg = N=C(N)NCCCC[C@H](N)C(=O)O; hCit = NC(=O)NCCCC[C@H](N)C(=O)O; αMeF = C[C@](N)(Cc1ccccc1)C(=O)O; Nle = CCCC[C@H](N)C(=O)O; Ac5c = NC1(C(=O)O)CCCC1; Ac3c = NC1(C(=O)O)CC1; Aib = CC(C)(N)C(=O)O
The binders listed here are annotated with their cAMP released with respect to control, 10 nM peptide, UMR-106 cells.
MEASUREMENT_KIND: cAMP released with respect to control, 10 nM peptide, UMR-106 cells

BINDER	RESULT
[Aib]V[Aib]EIQ[αMePhe(2,6-F2)][Nle]HQ[hCit][Aib][αMePhe(2,6-F2)][Bip(2'-Et-4'-OMe)][hhPhe] [Seq. ID. 872]	42 percent of control
[Ac3c]V[Aib]EIQ[αMePhe(2,6-F2)][Nle]HQ[hArg][Aib][Aib][αMePhe(2-F)] [Seq. ID. 174]	72 percent of control
[Ac5c]V[Aib]EIQ[αMePhe(2,6-F2)][Nle]HQ[hArg]AK[αMeF] [Seq. ID. 49]	56 percent of control
